Hello, the source for this data is a protein production outcome set (Wang et al. 2014), in case you need it.

assay: label from the status in PepcDB records;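 note: failed if final PepcDB status was selected cloned or expressed and not failed if soluble or beyond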

sequence code	protein production
MKATLAAPSSLTSLPYRTNSSFGSKSSLLFRSPSSSSSVSMTTTRGNVAVAAAATSTEALRKGIAEFYNETSGLWEEIWGDHMHHGFYDPDSSVQLSDSGHKEAQIRMIEESLRFAGVTDEEEEKKIKKVVDVGCGIGGSSRYLASKFGAECIGITLSPVQAKRANDLAAAQSLAHKASFQVADALDQPFEDGKFDLVWSMESGEHMPDKAKFVKELVRVAAPGGRIIIVTWCHRNLSAGEEALQPWEQNILDKICKTFYLPAWCSTDDYVNLLQSHSLQDIKCADWSENVAPFWPAVIRTALTWKGLVSLLRSGMKSIKGALTMPLMIEGYKKGVIKFGIITCQKPL	failed
MSAIRSRRSLLIPVLIVALLHVYIGVRLLPGLPVPMIVHSLAVLWLIASTLLMPAALMARRLSTPWADQLSWVGMMAMGFFSSLLVLTIARDLFLLVTLAIGWRPPGLTGYSALGAIALALAVTVIGFFQARGLAKVKEVDVPIANLPDALHGFTIAQISDIHVGPTIKRPYIDRIVDRVNSLAPDAIAITGDLVDGSVRELSAHTAPFARLSARHGAYVVTGNHEYYSGAEAWIVELRRLGLRVLMNEHVVVERGDASLVLGGVTDFTAGGFIESHRSDPVQALDGAPRDAAARVLLAHQPRTAPAAAAAGFDLQLSGHTHGGQFWPWNLFVPMQQPYVHGLNRHDNLWVYVSRGTGYWGPPKRFGAPSEITLVRLVRG	failed

----------
experiment: label from the status in PepcDB records
observation type: protein production

Some sequences with recorded protein production:
sequence code	protein production
KIMIAALDYDPGDGQMGGQGKGRLALRAGDVVMVYGPMDDQGFYYGELGGHRGLVPAHLLDHMSLHGH	not failed
MHSSSRASFTTRGDIRRQVEGFSASGERNKDTVVDLSTFFAERGYSNNQAPTKYWEEKLVTIGNVVVPKWVPVKERNSSNKQKEGEDEVFIGFEAIYYPEQPPERQPITLYQEENKVEEEEQSRE	not failed
MSNIECVMFDCDGTLVDSEVLCCRAYVVMFAHYDIHLSLEEVIKRFKGVKLNEIVARVSQENGLDEPIEKLEKLYRAEVARLFDAELQPIAGAKALLEQITLPVCVVSNGPVSKMQHSLGLTGLLPFFEDKLYSGYDIQRWKPDPTLIYHAAEKMHVAAERCILVEDSAAGTHAGIAAGIPVYYYCADPHNQPIHHPLVTMFDDMQQLPDLWRERGWQITSH	failed
MNYSIRLFKIMGIPIELHITFILFLVVIIGLSIMNNSIFWAVLFILLFVSVVLHELGHSYVAKKYGVKIEKILLLPIGGVAMMDKIPKEGELRIGIAGPLVSFIIGIVLLIVSQFFDININGYPLLYTLSLLNLMLGGFNLIPAFPMDGGRILRAILSKKYGYLKSTKIAANIGKSLALIMLLFGLLSMNIILILVSLFVYFGAEQESRVVEVETIFKNIKAKDIMTPNPVYVTPDMSIEEFLDFMLKHKYFGYPVVENGKLVGCIGIGNIHKKEGTVRDYMEKPVVVSEDTDIKEILRKMANTDRVFVVEGGKLKGIISKTDILRAMSILELKEELKD	failed
MIRAVFFDFVGTLLSVEGEAKTHLKIMEEVLGDYPLNPKTLLDEYEKLTREAFSNYAGKPYRPIRDIEEEVMRKLAEKYGFKYPENFWEIHLRMHQRYGELYPEVVEVLKSLKGKYHVGMITDSDTEYLMAHLDALGIKDLFDSITTSEEAGFFKPHPRIFELALKKAGVKGEEAVYVGDNPVKDCGGSKNLGMTSILLDRKGEKREFWDKCDFIVSDLREVIKIVDELNGQ	not failed

Working through the 8 sequences below one at a time, give protein production for each.
1. MLTHYAALRASDRETFLIIELGGLGGRMGLVFVVMIVVLLYAPVHVPTYVGTLLGLLFVSIAFEIWMIVRRMRQDGLMARD
2. MEQNNIKEQLISFFNQACSTHQERLDFICSTRESDTFSSVDVPLEPIKNIIEITKDENQQIEITKIAVNNIKTLSSVGATGQYMASFFSTNSEPAIIFCVIYFLYHFGFLKDNNKKQIIKKAYETIADNIADYLNEN
3. MLDRLRSIPVRGLFARLFSWLFFGLAFALVAATIVDVFELLNSDEPLMQAMINGVNGSIIALAVYELAMVIRSEYSGRSETHDIVTMMRRTLPRFISTVCVAMSLEGLIMIIKYSQLDLAGNLVYPVAIIASTALLLAALGVFLKMAPKEIGANGCDESCTTK
4. PTRQVLQGSRCRLEPLTLAHASDLFAAHQLAPDARSWTWLLREPESNLAEFSAWVEQVATLADPIHFAVVDQQRGKAVGSLALMRIDIAHGVVEVGHVHFSPLLSRTAMATEAHWLLMQYVFDTLGYRRYEWKCNSLNIPSARAARRLGFQYEGRFRQALVSKGHNRDTDWFSVIDGEWPELD
5. MLKKIDDSESLLDTAALAPLQRFVERECRLLDEQRFEEWLALYLPEATYWAPATRDNPDPDSQVSLFWDDKETMQTRVQRLLHPEIHSQIPASVTVRLTSNFRAAVAPGGEKDAYQVECRFIMVEDRLGSPRQQFAGTFNYLLVQNGAAFRIRQKRVDLTNCDHAFHTLTQPF
6. LGKILQGVVVVLSGFQNPFRSELRDKALELGAKYRPDWTRDSTHLICAFANTPKYSQVLGLGGRIVRKEWVLDCH
7. QHTEERELKKRLMNTARTVSEMTEVKEALARKKQTEAVRHAVEEIRMINEADYIVVMDMNHIRYTHPVSTSIGKKSEGADEEAAFAEHIYFSEAKGEIGTAVRAFYPVKDQDLNQIGVVLVGKTLPGIADILLHLKRD
8. MKWNSNLYDHKHSFVAEYGKSMINFVNVGKDQKILDLGCGTGVLTNELAKNGATVIGTDLSKNMIDKAKTNYPNLIFQVKDATNLSFKNEFDTVFSNAVFHWISNQEKLLHSIYTCLKDNGTLICEFGAQNNISQIQTAFEKVIEQKGYSYCSPFFFPSKEEYKLLLDQAGFEVKHIIEYDRPTPLADGEKGLRNWICQFFASDLLEFSDEQKEQILFETEKLCKNSIWKNNQWVADYRRIQIIAVKNKNNGTK

Result:
1: failed; 2: not failed; 3: failed; 4: failed; 5: not failed; 6: failed; 7: not failed; 8: failed

Working through the 2 sequences below one at a time, give protein production for each.
1. MATASIAIAETPLVNYALRRGDDALVLGHRLSEWCGHAPMLEEDMALANIGLDLIGQARELFNYAAEVEGAANTEDSLAYLRDVRQYRNLLLVEQPNGDFARTMLRQLFYSAFADSYWRAMMGSSDPTLAAIAAKSEKESAYHLRHASEWVIRLGDGTEESHRRAQAAVDELWAFTGEMFQVDDGDAALIADGIAIDPERLRAGWSETVASVLARATLQQPSSSWMQKGGRAGHHSEHLGHLLSELQSLQRSFPGATW
2. MDTDWSNLAVRLERLLERFERIIDRHDPVLPRDPAFFDGAIAFRWRRSGEQGTFEPVTHPHLPDPADLVGIDLVREDLIRNTAQFMDGYPANNVLLWGERGTGKSTCVKGMLRLFADRGLRLVEVQRDDLMSLPALIAALRSVPRRFILFCDDLSFGEGEGGYRELKALLEGSIEAKPTNILFYATSNRRHLLPERMEDNLSSEIHPEEAVSEKLSLADRFGMALGFYPFSQDVYLSIVERYAEKFALPMEREALRKEAHLWAMYRGSRSGRSARQFIDDLAGRLGVRLNDRLEHHHHHH

Result:
1: failed; 2: failed

----------
test: label from the status in PepcDB records

sequence code	protein production
MLDKNKFIQINLVPCHFCYSFLSYASILEAIMKFKNILVVLNPSNEKQYALARAVRLVEEQKNETKVKITALLSVYDLSYEMSALLSSEERSEMHQQVIEKHRHAVQYYLDKYANPEIELQSHIVWNSNEADAINEEVENNNYDLVVKYTKDEEKLTSLIFTPIDWQLLRKCPIPVLMVRDGDWKHPRRILVAVNVSGEQEYQDEFNQELVETGISLAENLNRGNVHLVAAYPSAPINMAIDLPEFNTSGYENGIRGQHLINMKALRQKFGIDEDHTHVREGFPEEVIPEVAKEIEAELVILGTVGRTGLSAALLGNTAEHVISKLSCNLLGIKPSKKDD	failed
MALPPYDPNFTLAFSYGRRDNVFENDPEHDESASAAIVAVELISSARLALKLDSVRTEYSAQYLVDKAGSRNLRRRRKLTVKDCLNFALKKGGIPRAEDWPPLGSESKTPSSYEPALVSMKGEVIEPKDMDEVPELLVHQSAVGAKLHVFTPHIELQQDVSAIAYARYVGLRDGIVVGTEKIQGKSMAIVKVWYKKKFVVVKVALSRMFYLAGVGPSVLLVDFCVPRLSID	failed
QSGATAKVSVLYIGPMEAPADAAQRLGLPAGTQVLARRRLYFRNGTPVETASSYLPWDVVKDIPELFAENPGGGGIYARLEDHGHEFAEFVETLQARPASKAEASELALSPGAPVVHLIREARTTAGVVVEVCDTLMAADQFVFEYRIPAAD	failed
